- measured_on: adenylate cyclase in horse thrombocytes (Equus caballus)
- Construct: Gs-coupled adenylate cyclase stimulation, cAMP formation from ATP as read-out
- Sequence (F7CK38 1-384): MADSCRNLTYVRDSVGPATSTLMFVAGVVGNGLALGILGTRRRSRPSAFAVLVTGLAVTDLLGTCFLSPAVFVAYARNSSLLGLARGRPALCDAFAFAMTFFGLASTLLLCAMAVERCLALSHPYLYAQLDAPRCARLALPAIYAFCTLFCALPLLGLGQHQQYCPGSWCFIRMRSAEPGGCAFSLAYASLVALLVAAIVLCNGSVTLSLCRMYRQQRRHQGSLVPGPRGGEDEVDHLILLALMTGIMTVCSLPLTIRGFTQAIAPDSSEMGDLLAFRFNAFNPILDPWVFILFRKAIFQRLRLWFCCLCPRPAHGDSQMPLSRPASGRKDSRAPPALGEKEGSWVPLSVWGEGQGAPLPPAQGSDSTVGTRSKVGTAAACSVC
- method_notes: Stimulation of adenylate cyclase (c-AMP formation from ATP) in horse thrombocytes
- Assay type: biochemical
Listed next: entries and their corresponding EC200% (dose causing a threefold stimulation of the cAMP formation from ATP).
Use µmol/L as the unit, but write only the number.

Worked cases, answers included:
[[record]]
compound = "O=C(O)c1cccc(C=C2CC3CC(O)C(C=CC(O)C45CC6CC(CC(C6)C4)C5)C3C2)c1 (centres unmarked) [Example 3e]"
measured_on = "adenylate cyclase in horse thrombocytes (Equus caballus)"
unit_name = "µmol/L"
reported_measurement = 0.18

[[record]]
compound = "O=C(O)c1cccc(/C=C2\\C[C@H]3C[C@@H](O)[C@H](/C=C/[C@@H](O)C4CCCCC4)[C@H]3C2)c1 [Example 2]"
measured_on = "adenylate cyclase in horse thrombocytes (Equus caballus)"
unit_name = "µmol/L"
reported_measurement = 0.13

[[record]]
compound = "CCCCCC(O)C=CC1C(O)CC2OC(CCCCC(=O)O)CC21 (centres unmarked) [5,6-Dihydroprostacyclin, 5,6-dihydroprostacyclin, reference compound]"
measured_on = "adenylate cyclase in horse thrombocytes (Equus caballus)"
unit_name = "µmol/L"
reported_measurement = 15.0


Query for adenylate cyclase in horse thrombocytes (Equus caballus): what EC200% (dose causing a threefold stimulation of the cAMP formation from ATP) does the record show for CCCCC[C@H](O)/C=C/[C@@H]1[C@H]2CC(=Cc3cccc(C(=O)O)c3)C[C@H]2C[C@H]1O [Compound A, reference compound] ?
0.4

Query for adenylate cyclase in horse thrombocytes (Equus caballus): what EC200% (dose causing a threefold stimulation of the cAMP formation from ATP) does the record show for O=C(O)c1cccc(C=C2C[C@H]3C[C@@H](O)[C@H](/C=C/[C@@H](O)C4CCCCC4)[C@H]3C2)c1 [Example 1e] ?
0.15

Origin of values: patent US4510323A
